System: Immunoglobulin E (IgE) (Homo sapiens), P01854-1
Sequence (P01854 other isoform, or with tags, fused parts or gaps): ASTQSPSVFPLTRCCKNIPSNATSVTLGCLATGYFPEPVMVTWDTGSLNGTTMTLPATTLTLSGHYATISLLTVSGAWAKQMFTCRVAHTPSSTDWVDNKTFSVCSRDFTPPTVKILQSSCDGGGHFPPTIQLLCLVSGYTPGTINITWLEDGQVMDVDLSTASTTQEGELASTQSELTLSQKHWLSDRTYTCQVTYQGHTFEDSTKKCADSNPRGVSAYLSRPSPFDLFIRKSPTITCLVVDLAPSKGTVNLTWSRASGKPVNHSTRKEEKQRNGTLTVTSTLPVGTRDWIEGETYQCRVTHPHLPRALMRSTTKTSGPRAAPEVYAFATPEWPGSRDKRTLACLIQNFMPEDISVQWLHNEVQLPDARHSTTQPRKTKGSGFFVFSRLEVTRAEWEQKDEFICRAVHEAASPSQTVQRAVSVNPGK
experiment.description: filter
condition.set: 2'-OMe at 1-4,7,33-37; PS 25-26; 3' idT [2'-OMe at 1-4,7,33-37; PS 25-26; 3' idT cap after 37 (left out)]; DPBS Mg/Ca, BSA
assay.metric: pKd
Please report pKd as the negative decimal logarithm of the molar concentration, giving only the number.

Request: State, in one line, measured pKd of GGGGCTACTTTATCCGTTCCTCCTAGTGGGTAGCCCC [ARC1408]
Result: 9.00

* * *

Tested on: Immunoglobulin E (IgE) (Homo sapiens), P01854-1
experiment.description: filter
condition.set: ARC1666 chemistry + PS 17-18; 3' idT; DPBS Mg/Ca, BSA, RT
assay.metric: Kd (nM)
Field format: number, assumed nM, no unit text.

Request: Give recorded Kd. AGCCUGGGNGACCCAUNNNGNNNGNNGCUN [ARC2982]
Result: 0.03
